B1: library; numbered along this chain (parent)
chain: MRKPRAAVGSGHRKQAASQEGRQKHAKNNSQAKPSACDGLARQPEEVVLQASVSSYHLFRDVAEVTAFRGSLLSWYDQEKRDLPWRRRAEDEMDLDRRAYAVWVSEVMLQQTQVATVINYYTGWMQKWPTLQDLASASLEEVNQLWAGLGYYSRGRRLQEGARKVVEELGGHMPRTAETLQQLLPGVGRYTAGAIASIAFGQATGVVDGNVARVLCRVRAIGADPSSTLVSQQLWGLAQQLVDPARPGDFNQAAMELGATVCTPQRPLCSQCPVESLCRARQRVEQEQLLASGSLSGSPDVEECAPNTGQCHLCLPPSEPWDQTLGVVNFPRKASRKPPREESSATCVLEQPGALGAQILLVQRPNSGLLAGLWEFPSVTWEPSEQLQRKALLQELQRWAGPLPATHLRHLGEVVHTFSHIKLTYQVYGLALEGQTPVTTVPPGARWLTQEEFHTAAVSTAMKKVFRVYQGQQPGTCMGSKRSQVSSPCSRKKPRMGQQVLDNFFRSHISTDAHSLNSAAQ

variants of: B1; assay: 8OG:A repair function score (normalized; synonymous = 0, nonsense = -1) (normalized log-likelihood score); higher = more repair activity (WT-like); details: with 8OG:A DNA repair reporter (GFP) in HEK-293 MUTYH KO cells;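 further: cells sorted at 72 h after reporter transfection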
measure: 8OG:A repair function score
The response must contain the number and no unit.

Guide cases for 8OG:A repair function score, answers given:
# changes, recorded measurement
measured = [
    ("S71V", 0.00531),
    ("L73S", -0.594),
    ("V211H", -0.617),
]

In: // returns reported 8OG:A repair function score for input Q435F
Out: -0.052

In: Return reported 8OG:A repair function score; argument: L290K
Out: 0.0241

In: Which 8OG:A repair function score reading was recorded for the variant R81N ?
Out: -0.365

In: // query 8OG:A repair function score value for entry G497P
Out: -0.0806
